Examples of compounds with documented ΔTm (º) (TSA) follow.
test system: dCK-C3S-S74E; assay: Thermal shift assay (TSA); conditions: Figure 2a, mean
Sequence (P27707 whole entry S74E, form open): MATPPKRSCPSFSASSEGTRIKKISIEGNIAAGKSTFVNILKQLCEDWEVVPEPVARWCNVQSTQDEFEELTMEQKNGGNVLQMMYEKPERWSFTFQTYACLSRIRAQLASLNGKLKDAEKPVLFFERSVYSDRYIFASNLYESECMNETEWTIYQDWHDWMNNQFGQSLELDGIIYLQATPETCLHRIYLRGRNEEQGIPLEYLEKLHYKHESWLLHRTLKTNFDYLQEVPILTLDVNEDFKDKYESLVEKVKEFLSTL

compound: CCCN(c1nc(-c2nc(N)cc(N)n2)cs1)c1cc(-c2ccc(C(=O)N3CCOCC3)nc2)ccc1C [OR0621]
endpoint: ΔTm (º) (TSA)
result.value: 16.63 º
//
compound: Cc1ccc(-c2ccc(CCN3CCN(C)CC3)cc2)cc1N(CCCN)c1nc(-c2nc(N)cc(N)n2)cs1 [OR0611]
endpoint: ΔTm (º) (TSA)
result.value: 14.67 º
//
compound: CCCN(c1nc(-c2nc(N)cc(N)n2)cs1)c1cc(-c2ccc(S(=O)(=O)N3CCNCC3)cc2)ccc1C [OR0639]
endpoint: ΔTm (º) (TSA)
result.value: 20.72 º

// ΔTm (º) (TSA) lookup, key: CCCN(c1nc(-c2nc(N)cc(N)n2)cs1)c1cc(-c2ccc(NC(=O)N3CCN(C)CC3)nc2)ccc1C [OR0616] 19.23 º

Can you check CCCCN(c1nc(-c2nc(N)cc(N)n2)cs1)c1cc(-c2ccc(CCN3CCN(C)CC3)cc2)ccc1C [OR0606] next? 19.85 º

###

test system: dCK-C3S-S74E; experiment: Enzymatic assay (PK/LDH coupled), dC phosphorylation by dCK in the presence of UTP; type: biochemical, human; conditions: presence of UTP
endpoint: ENZYMATIC ASSAY (Activation/Inhibition)

Answered examples (6):
compound: CCCN(c1nc(-c2nc(N)cc(N)n2)cs1)c1cc(-c2ccc(S(=O)(=O)N(C)C)cc2)ccc1C [OR0618]
result.value: I
--
compound: CCCN(c1nc(-c2nc(N)cc(N)n2)cs1)c1cc(-c2ccc(S(=O)(=O)N3CCN(C)CC3)c(OC)c2)ccc1C [OR0635]
result.value: I
--
compound: Cc1ccc(-c2ccc(CCCN3CCN(C)CC3)cc2)cc1Nc1nc(-c2nccc(N)n2)cs1 [OR0331]
result.value: A/I
--
compound: CCCN(c1nc(-c2nc(N)cc(N)n2)cs1)c1cc(-c2ccc(CCN3CCN(C)CC3)nc2)ccc1C [OR0602]
result.value: I
--
compound: Cc1ccc(NC(=O)c2ccc(CN3CC4(CN(C)C4)C3)cc2)cc1Nc1nc(-c2nccc(N)n2)cs1 [OR0156]
result.value: A/I
--
compound: CCCN(c1nc(-c2nc(N)cc(N)n2)cs1)c1cc(-c2ccc(S(N)(=O)=O)cc2)ccc1C [OR0615]
result.value: I

Entry Cc1ccc(-c2ccc(OCCN3CCN(C)CC3)nc2)cc1N(CC(C)C)c1nc(-c2nc(N)cc(N)n2)cs1 [OR0608] has what ENZYMATIC ASSAY (Activation/Inhibition)? I

// repeat for Cc1ccc(NC(=O)c2ccc(CN3CCN(C)CC3)cc2)cc1Nc1nc(-c2nc(N)cc(N)n2)cs1 [dCKi2] and report A/I

###

test system: CCRF-CEM cell line; test: dCK cellular assay: CCRF-CEM proliferation in the presence of dT and dC; type: cell-based, human; details: Homo sapiens, read-out: dCK CELLULAR ASSAY IC50 (nM); CCRF-CEM, 200 µM dT and 1 µM dC; read-out: dCK […] ASSAY IC50
# criterion met = IC50 below 300 nM (exclusive); criterion not met = IC50 at/above 300 nM

Worked set:
smiles.notation: Cc1ccc(C#Cc2ccc(CN(C)C)cc2)cc1Nc1nc(-c2nccc(N)n2)cs1
class.name: criterion not met
//
smiles.notation: CCCN(c1nc(-c2nc(N)cc(N)n2)cs1)c1cc(-c2ccc(CCCN3CCN(C)CC3)cc2)ccc1C
class.name: criterion not met
//
smiles.notation: CCCN(c1nc(-c2nc(N)cc(N)n2)cs1)c1cc(-c2ccc(S(=O)(=O)NCCN)cc2)ccc1C
class.name: criterion not met
//
smiles.notation: CCCN(c1nc(-c2nc(N)cc(N)n2)cs1)c1cc(-c2ccc(S(=O)(=O)N3CCN(C)CC3)c(OC)c2)ccc1C
class.name: criterion met
//
smiles.notation: CCCN(c1nc(-c2nc(N)cc(N)n2)cs1)c1cc(-c2ccc(S(=O)(=O)N3CCN(C)CC3)cc2Cl)ccc1C
class.name: criterion met
//
smiles.notation: Cc1ccc(NC(=O)c2ccc(CCN3CCN(C)CC3)cc2)cc1Nc1nc(-c2nccc(N)n2)cs1
class.name: criterion not met
//
smiles.notation: CN1CCN(Cc2ccc(C(=O)Nc3ccc4c(c3)N(c3nc(-c5nccc(N)n5)cs3)CCCC4)cc2)CC1
class.name: criterion not met
//
smiles.notation: Cc1ccc(NC(=O)c2ccc(CN3CC4(CN(C)C4)C3)cc2)cc1Nc1nc(-c2nccc(N)n2)cs1
class.name: criterion not met

With those in mind, consider the next compound.
Quick check: does Cc1ccc(OCc2ccc(CN3CCN(C)CC3)cc2)cc1Nc1nc(-c2nccc(N)n2)cs1 have IC50 under 300 nM? criterion not met

###

test system: dCK-C3S-S74E; test: Enzymatic assay (PK/LDH coupled), dC phosphorylation by dCK in the presence of ATP; type: biochemical, human; conditions: 0.63 µM
endpoint: Enzymatic activity (ATP) Mean (% activity)

Example results:
compound: Cc1ccc(NC(=O)c2ccc(CN3CCN(C)CC3)cc2)cc1Nc1nc(-c2nc(N)cc(N)n2)cs1 [dCKi2]
result.value: 62.1%
//
compound: CCCN(c1nc(-c2nc(N)cc(N)n2)cs1)c1cc(-c2ccc(S(=O)(=O)N3CCN(C)CC3)cc2C(F)(F)F)ccc1C [OR0642]
result.value: 4.2%

With those in mind, consider the next compound.
State the recorded Enzymatic activity (ATP) Mean (% activity) for this entry: CCCN(c1nc(-c2nc(N)cc(N)n2)cs1)c1cc(-c2ccc(S(=O)(=O)N3CCN(C)CC3)c(OC)c2)ccc1C [OR0635] 4.6%

###

tested on: dCK-C3S-S74E; assay: Thermal shift assay (TSA); details: mean ± SD
endpoint: THERMAL SHIFT ASSAY +Tm (°)
# number only, unit ° dropped from output

Observe how each entry below is paired with its result.
compound: CCCN(c1nc(-c2nc(N)cc(N)n2)cs1)c1cc(-c2ccc(NS(=O)(=O)N3CCN(C)CC3)nc2)ccc1C [OR0625]
THERMAL SHIFT ASSAY +Tm (°): 16.8

compound: CCCN(c1nc(-c2nc(N)cc(N)n2)cs1)c1cc(-c2cccnc2)ccc1C [OR0620]
THERMAL SHIFT ASSAY +Tm (°): 15.7

compound: Cc1ccc(-c2ccc(CCN3CCN(C)CC3)cc2)cc1N(CCN)c1nc(-c2nc(N)cc(N)n2)cs1 [OR0610]
THERMAL SHIFT ASSAY +Tm (°): 14.7

compound: Cc1ccc(-c2ccc(CN3CCN(C)CC3)cc2)cc1Nc1nc(-c2nccc(N)n2)cs1 [OR0274]
THERMAL SHIFT ASSAY +Tm (°): 16.7

compound: CCCN(c1nc(-c2nc(N)cc(N)n2)cs1)c1cc(-c2ccc(S(=O)(=O)N3CCN(CC)CC3)cc2)ccc1C [OR0638]
THERMAL SHIFT ASSAY +Tm (°): 20.2

compound: Cc1ccc(NC(=O)c2ccc(CN(C)C)cc2)cc1Nc1nc(-c2nccc(N)n2)cs1 [OR0155]
THERMAL SHIFT ASSAY +Tm (°): 10.9

compound: CCCN(c1nc(-c2nc(N)cc(N)n2)cs1)c1cc(-c2ccc(C(=O)OC)nc2)ccc1C [OR0622]
THERMAL SHIFT ASSAY +Tm (°): 16.5

compound: CCCN(c1nc(-c2nc(N)cc(N)n2)cs1)c1cc(-c2cnc(N)nc2)ccc1C [OR0613]
THERMAL SHIFT ASSAY +Tm (°): 14.5

Suppose we examine the compound CCN(c1nc(-c2nc(N)cc(N)n2)cs1)c1cc(-c2ccc(S(=O)(=O)N3CCN(C)CC3)cc2)ccc1C [OR0632] ; what THERMAL SHIFT ASSAY +Tm (°) value has been reported? 17.8

Also check Cc1ccc(-c2ccc(CCN3CCN(C)CC3)cc2)cc1Nc1nc(-c2nccc(N)n2)cs1 [OR0325] 17.9

Also, Cc1ccc(NC(=O)c2ccc(CN3CC4(CN(C)C4)C3)cc2)cc1Nc1nc(-c2nccc(N)n2)cs1 [OR0156] please. 12.6

Now this one: Cc1ccc(-c2ccc(O)cc2)cc1Nc1nc(-c2nccc(N)n2)cs1 [OR0320] 15.0

Also, Cc1ccc(NC(=O)c2ccc(CN3CCN(C)CC3)cc2)cc1Nc1nc(-c2nccc(N)n2)cs1 [dCKi1] please. 14.3

Next record, please: CCCN(c1nc(-c2nc(N)cc(N)n2)cs1)c1cc(-c2ccc(S(=O)(=O)N(C)C)cc2)ccc1C [OR0618] 18.8

Would you kindly repeat that for Cc1ccc(NC(=O)c2ccc(CCN3CCN(C)CC3)cc2)cc1Nc1nc(-c2nccc(N)n2)cs1 [OR0146] ? 14.8

Another compound to check: CCCN(c1nc(-c2nc(N)cc(N)n2)cs1)c1cc(-c2ccc(C(=O)N3CCOCC3)nc2)ccc1C [OR0621] 16.6

Now consider CCCN(c1nc(-c2nc(N)cc(N)n2)cs1)c1cc(-c2c(F)cc(S(=O)(=O)N3CCN(C)CC3)cc2OC)ccc1C [OR0644] and answer again. 20.5

Check CCCN(c1nc(-c2nccc(N)n2)cs1)c1cc(NC(=O)c2ccc(CN3CCN(C)CC3)cc2)ccc1C [OR0105] too. 14.5
